Can you tell me IC50 for the items I'm about to list?
# target_entity: Apoptotic protease-activating factor 1 (Homo sapiens, UniProt O14727)
# Sequence (O14727 whole entry): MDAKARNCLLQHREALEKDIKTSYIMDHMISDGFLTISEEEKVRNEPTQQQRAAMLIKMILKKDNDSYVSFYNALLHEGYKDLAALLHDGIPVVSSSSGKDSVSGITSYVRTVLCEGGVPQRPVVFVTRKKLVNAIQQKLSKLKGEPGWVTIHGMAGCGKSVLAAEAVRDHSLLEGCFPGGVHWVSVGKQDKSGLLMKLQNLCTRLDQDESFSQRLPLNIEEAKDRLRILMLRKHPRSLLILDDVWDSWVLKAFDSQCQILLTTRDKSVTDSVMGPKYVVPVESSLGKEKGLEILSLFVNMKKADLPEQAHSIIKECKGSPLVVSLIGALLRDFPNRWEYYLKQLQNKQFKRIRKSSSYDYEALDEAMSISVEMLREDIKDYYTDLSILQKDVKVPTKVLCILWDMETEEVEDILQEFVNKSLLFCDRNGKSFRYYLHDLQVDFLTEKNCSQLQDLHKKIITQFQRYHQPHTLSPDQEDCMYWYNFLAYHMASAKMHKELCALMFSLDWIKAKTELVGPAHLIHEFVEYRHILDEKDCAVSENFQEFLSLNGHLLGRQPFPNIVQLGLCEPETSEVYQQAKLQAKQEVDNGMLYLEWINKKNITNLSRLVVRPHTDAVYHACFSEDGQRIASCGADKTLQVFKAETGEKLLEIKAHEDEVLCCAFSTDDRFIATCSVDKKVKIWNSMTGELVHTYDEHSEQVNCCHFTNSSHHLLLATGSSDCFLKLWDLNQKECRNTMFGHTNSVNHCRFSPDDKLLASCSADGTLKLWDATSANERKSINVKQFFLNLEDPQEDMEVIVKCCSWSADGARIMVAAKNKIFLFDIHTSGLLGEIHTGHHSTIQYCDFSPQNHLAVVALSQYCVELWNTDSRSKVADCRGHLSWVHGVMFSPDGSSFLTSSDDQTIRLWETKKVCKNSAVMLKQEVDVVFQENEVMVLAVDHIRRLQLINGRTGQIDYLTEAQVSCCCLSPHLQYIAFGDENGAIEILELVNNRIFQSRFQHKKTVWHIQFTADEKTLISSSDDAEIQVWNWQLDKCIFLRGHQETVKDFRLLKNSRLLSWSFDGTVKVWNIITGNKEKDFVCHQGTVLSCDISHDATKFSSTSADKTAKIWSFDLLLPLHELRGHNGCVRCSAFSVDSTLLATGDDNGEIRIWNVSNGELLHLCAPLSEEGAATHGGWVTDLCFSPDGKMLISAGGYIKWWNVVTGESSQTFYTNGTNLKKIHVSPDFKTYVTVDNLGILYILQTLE
# Assay type: functional
Activity calls are given as the source filed them.

Quick one: IC50 for `CCOC(=O)c1nn(-c2ccc(C)c(C)c2)c(=O)c2c(N)scc12` ?
42.2 µM (active)

For the molecule `O=C(Nc1cccc(C(F)(F)F)c1)c1ccc2nc(-c3ccco3)c(-c3ccco3)nc2c1` , what IC50 is on record?
43.9 µM (active)

What measured IC50 goes with `COc1cc(/C=C/c2cc[n+](C)cc2)ccc1OCC(=O)Nc1ccc(Cl)c(Cl)c1` ?
22.6 µM (active)

Given `CCN1/C(=C/C(C)=C/c2sc3ccccc3[n+]2CC)Sc2ccccc21` , state its recorded IC50.
19.4 µM (active)

Recorded IC50 for `CCCCCCCCCC[N+](C)(C)CC/C=C1/c2ccccc2Sc2ccc(Cl)cc21` , please?
10.6 µM (active)

###

# target_entity: Voltage-gated N-type calcium channel alpha-1B subunit/Amyloid beta A4 precursor protein-binding family A member 1 (Homo sapiens, UniProt Q00975+Q02410)
# Sequence (Q00975 whole entry): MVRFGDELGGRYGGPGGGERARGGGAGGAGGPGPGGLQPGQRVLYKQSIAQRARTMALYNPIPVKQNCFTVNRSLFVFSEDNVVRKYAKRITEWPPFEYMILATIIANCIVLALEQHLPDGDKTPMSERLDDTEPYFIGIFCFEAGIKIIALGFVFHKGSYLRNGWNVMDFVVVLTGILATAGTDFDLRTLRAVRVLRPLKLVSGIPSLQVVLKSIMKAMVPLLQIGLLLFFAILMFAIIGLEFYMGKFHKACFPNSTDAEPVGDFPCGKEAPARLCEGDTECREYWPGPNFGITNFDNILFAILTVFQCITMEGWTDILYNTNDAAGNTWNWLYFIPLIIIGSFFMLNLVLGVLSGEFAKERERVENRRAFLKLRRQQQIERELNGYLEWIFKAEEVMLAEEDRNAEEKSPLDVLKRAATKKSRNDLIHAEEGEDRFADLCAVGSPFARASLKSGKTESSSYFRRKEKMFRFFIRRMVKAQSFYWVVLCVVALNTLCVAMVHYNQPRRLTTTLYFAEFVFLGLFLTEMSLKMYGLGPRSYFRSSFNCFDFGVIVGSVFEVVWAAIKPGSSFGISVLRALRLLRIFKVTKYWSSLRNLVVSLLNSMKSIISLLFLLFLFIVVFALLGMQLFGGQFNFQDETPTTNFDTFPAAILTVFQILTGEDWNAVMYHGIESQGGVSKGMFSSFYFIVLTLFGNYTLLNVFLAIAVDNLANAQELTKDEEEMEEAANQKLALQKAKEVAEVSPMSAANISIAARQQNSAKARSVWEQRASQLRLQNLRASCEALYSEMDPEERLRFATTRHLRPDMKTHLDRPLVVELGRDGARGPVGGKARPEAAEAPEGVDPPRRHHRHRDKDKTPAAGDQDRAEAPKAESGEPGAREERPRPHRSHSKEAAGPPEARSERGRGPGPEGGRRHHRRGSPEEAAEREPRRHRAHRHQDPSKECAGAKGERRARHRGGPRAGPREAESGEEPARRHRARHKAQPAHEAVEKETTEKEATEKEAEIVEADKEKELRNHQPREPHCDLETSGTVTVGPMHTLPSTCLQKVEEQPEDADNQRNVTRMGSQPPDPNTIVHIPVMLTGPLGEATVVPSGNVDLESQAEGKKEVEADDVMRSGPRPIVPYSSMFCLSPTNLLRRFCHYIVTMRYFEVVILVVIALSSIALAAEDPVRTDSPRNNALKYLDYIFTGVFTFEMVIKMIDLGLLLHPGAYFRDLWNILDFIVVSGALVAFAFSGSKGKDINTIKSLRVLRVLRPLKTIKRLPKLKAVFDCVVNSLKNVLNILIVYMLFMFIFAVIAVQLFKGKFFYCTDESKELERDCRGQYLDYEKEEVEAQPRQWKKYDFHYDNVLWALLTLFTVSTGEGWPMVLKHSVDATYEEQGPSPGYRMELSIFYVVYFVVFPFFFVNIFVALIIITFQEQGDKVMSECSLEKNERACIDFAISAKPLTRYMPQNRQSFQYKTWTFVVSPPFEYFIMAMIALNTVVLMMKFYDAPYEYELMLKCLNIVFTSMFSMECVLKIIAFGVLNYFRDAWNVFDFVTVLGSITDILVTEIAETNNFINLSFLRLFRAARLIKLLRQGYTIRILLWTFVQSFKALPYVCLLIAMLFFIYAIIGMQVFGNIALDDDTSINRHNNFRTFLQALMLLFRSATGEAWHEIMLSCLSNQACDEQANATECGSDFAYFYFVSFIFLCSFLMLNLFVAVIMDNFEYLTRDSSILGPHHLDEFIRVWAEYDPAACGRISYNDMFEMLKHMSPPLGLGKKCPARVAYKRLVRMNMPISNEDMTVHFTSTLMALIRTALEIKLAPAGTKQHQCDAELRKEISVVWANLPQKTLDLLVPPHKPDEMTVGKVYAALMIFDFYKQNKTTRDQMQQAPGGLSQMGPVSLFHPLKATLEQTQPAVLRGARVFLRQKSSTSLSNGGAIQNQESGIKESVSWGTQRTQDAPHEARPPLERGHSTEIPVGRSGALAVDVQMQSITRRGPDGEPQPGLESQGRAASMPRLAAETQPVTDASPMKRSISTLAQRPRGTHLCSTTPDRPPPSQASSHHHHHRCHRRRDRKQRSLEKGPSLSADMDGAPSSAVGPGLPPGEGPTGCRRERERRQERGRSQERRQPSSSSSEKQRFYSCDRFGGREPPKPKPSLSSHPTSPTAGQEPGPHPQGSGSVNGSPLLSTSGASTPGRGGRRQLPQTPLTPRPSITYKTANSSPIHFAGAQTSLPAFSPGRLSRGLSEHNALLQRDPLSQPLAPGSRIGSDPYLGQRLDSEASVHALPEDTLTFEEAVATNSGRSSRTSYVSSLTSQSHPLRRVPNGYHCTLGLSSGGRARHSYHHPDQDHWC
# Sequence (Q02410 whole entry): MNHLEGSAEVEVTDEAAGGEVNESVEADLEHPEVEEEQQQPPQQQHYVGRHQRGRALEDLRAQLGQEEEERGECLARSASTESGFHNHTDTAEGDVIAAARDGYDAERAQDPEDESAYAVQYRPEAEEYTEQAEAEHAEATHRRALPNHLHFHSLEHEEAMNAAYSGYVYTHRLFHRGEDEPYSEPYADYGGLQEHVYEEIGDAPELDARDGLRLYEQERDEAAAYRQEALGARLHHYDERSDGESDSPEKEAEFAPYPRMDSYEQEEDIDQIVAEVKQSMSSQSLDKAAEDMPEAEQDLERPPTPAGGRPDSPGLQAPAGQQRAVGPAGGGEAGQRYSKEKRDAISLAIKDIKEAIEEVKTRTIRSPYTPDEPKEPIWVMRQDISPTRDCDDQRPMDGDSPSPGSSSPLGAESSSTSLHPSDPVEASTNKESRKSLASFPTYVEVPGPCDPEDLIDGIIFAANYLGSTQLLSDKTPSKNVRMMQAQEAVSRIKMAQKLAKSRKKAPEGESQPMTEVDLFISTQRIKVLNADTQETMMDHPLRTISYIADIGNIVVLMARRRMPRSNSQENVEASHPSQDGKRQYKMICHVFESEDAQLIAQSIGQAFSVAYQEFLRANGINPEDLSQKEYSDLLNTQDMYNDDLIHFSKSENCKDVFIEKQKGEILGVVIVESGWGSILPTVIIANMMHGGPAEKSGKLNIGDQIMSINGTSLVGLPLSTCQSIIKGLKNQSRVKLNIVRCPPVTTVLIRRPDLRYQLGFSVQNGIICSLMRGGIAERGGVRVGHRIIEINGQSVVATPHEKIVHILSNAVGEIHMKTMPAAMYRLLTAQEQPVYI
# Format: protein assay
Calls of active or inactive are those of the source.
Reply using exactly one outcome from 1 (yes) (active), 0 (no) (inactive)

Field: outcome | Entry: `COc1cc2c(cc1OC)-c1cc(Nc3ccc(C(=O)O)cc3)nc(=O)n1CC2`
0 (no)

Tell me the recorded outcome of this test for `CCN(CC)Cc1cc(O)c(CN(CC)CC)cc1O` .
1 (yes)

Which result was noted for this molecule in the test: `CCOC(=O)c1nn(-c2ccc(C)c(C)c2)c(=O)c2c(N)scc12`
0 (no)

Test call, this molecule: `COc1ccc(NC(=O)CN2C(=O)/C(=C3\SC(=S)N(CCC(=O)O)C3=O)c3ccccc32)cc1`
0 (no)

# outcome recorded in this test, key = `Cc1cc(C(=O)O)ccc1-c1ccc(/C=C2\SC(=O)N(CC(=O)Nc3ccc4c(c3)OCO4)C2=O)o1`
0 (no)

###

# target_entity: Eukaryotic translation initiation factor 4E (Mus musculus, UniProt P63073)
# Sequence (P63073 whole entry): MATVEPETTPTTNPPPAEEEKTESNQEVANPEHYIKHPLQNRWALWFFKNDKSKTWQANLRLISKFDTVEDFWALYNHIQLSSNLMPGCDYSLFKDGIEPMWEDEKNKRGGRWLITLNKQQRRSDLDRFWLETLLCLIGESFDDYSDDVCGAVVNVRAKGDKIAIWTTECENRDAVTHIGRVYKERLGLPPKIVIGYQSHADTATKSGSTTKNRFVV
# run_description: eIF4E–eIF4G protein interaction inhibitors, dose response, biochemical, TR-FRET (AID 855);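 also: potency for disrupting eIF4E binding to eIF4GI seen as loss of FRET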
# Type: functional
The source made the active and inactive calls.
parameter_measured: IC50

Can you look up IC50 on Eukaryotic translation initiation factor 4E (Mus musculus, UniProt P63073) for `Cc1oc(-c2ccc(Cl)cc2)nc1CN1CCC(C(=O)NCc2ccco2)CC1` ?
> 64 µM (inactive)

Form field - read-out: IC50; system: Eukaryotic translation initiation factor 4E (Mus musculus, UniProt P63073); submitted item: `COc1ccccc1NC(=O)c1ccc(S(=O)(=O)N(C)C)cc1`
> 64 µM (inactive)

Test system Eukaryotic translation initiation factor 4E (Mus musculus, UniProt P63073); read-out IC50; what value for CC1CCC(C(C)C)C(OC(=O)COC(=O)c2ccc(N)cc2)C1 (stereo not given) ?
> 64 µM (inactive)

So what IC50 did `O=C(CCNS(=O)(=O)c1cccs1)N1CCCCCC1` get with Eukaryotic translation initiation factor 4E (Mus musculus, UniProt P63073)?
> 64 µM (inactive)

Lab request: please report IC50 under test system Eukaryotic translation initiation factor 4E (Mus musculus, UniProt P63073) for `O=C(NCCO)Nc1ccc2nc(-c3ccco3)c(-c3ccco3)nc2c1`
50 µM (inactive)

###

# target_entity: Paired box protein Pax-8 (Homo sapiens)
# Sequence (Q06710 whole entry): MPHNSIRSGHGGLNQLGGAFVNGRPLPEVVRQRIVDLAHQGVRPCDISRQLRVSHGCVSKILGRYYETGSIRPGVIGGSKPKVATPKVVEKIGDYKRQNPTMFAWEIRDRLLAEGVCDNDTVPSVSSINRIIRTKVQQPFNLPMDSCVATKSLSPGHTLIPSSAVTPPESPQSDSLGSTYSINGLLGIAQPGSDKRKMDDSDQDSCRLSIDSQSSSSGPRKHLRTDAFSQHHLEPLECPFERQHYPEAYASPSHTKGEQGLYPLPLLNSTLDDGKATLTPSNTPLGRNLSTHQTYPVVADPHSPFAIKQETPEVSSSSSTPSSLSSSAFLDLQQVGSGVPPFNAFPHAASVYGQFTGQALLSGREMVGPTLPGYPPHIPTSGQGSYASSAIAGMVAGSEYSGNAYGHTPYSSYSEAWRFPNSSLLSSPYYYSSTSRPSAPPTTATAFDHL
# run_description: inhibitors of PAX8-driven TPO luciferase reporter, dose response, RMG-I cells, cherry-pick (AID 687027);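 also: luciferase reporter driven by Pax8 target thyroperoxidase promoter measured by SteadyGlo luminescence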
# Assay type: functional, cell-based
Active and inactive are the calls of the source.
Give AC50 for every item shown.

Data request, read-out AC50, for `Cc1ccc(C(=O)O/N=C(\N)c2ccccn2)cc1`
15.5 µM (active)

// returns reported AC50 for input O=C(NCCc1ccccc1)C(c1cccs1)N(C(=O)CCl)c1ccc(Cl)cc1 (stereo unspecified)
2.84 µM (active)

// query AC50 value for entry `Cc1ccc(S(=O)(=O)N(C)C[C@@H]2OCCCC[C@@H](C)Oc3ccc(NS(=O)(=O)c4ccc(Cl)cc4)cc3C(=O)N([C@H](C)CO)C[C@H]2C)cc1`
4.4 µM (active)

# lookup: AC50 of `C[C@H]1CCCCO[C@@H](CN(C)Cc2ccc(C(F)(F)F)cc2)[C@@H](C)CN([C@@H](C)CO)C(=O)c2cc(NC(=O)Nc3ccc4c(c3)OCO4)ccc2O1`
7.11 µM (active)

Quick check: AC50 of `Cc1c(Nc2cc(Cl)c3nonc3c2[N+](=O)[O-])c(=O)n(-c2ccccc2)n1C` ?
8.97 µM (active)

Can you look up the measured AC50 of `C[C@H]1CCCCO[C@H](CN(C)C(=O)c2ccccc2)[C@@H](C)CN([C@@H](C)CO)C(=O)c2cc(NC(=O)Nc3ccc(C(F)(F)F)cc3)ccc2O1` for me?
9.48 µM (active)

###

# run_description: microbe, parasite or virus in culture
# Type: functional
# measurement_parameters: Mycobacterium tuberculosis
Activity calls are given as the source filed them.
parameter_measured: CC50

Query (molecule): `CCNc1nc(NC(C)(C)C)nc(N2CCCCC2)n1` ; field requested: CC50
13.4 µM (active)

# input molecule: `CCCCS(=O)(=O)/C=C\C=C/S(=O)(=O)CCCC` ; wanted: its CC50
3.13 µM (active)

Would you mind telling me what CC50 value was observed for `N#CC1=C(c2ccccc2)/C(=C/c2ccccc2)OC1=O` ?
24.1 µM (active)

Requested read-out: CC50. Entry: `Cn1c(CNc2ccccc2O)nc2ccccc21`
30.4 µM (active)

###

# target_entity: Short transient receptor potential channel 4 (Mus musculus, UniProt Q9QUQ5)
# Sequence (Q9QUQ5 whole entry): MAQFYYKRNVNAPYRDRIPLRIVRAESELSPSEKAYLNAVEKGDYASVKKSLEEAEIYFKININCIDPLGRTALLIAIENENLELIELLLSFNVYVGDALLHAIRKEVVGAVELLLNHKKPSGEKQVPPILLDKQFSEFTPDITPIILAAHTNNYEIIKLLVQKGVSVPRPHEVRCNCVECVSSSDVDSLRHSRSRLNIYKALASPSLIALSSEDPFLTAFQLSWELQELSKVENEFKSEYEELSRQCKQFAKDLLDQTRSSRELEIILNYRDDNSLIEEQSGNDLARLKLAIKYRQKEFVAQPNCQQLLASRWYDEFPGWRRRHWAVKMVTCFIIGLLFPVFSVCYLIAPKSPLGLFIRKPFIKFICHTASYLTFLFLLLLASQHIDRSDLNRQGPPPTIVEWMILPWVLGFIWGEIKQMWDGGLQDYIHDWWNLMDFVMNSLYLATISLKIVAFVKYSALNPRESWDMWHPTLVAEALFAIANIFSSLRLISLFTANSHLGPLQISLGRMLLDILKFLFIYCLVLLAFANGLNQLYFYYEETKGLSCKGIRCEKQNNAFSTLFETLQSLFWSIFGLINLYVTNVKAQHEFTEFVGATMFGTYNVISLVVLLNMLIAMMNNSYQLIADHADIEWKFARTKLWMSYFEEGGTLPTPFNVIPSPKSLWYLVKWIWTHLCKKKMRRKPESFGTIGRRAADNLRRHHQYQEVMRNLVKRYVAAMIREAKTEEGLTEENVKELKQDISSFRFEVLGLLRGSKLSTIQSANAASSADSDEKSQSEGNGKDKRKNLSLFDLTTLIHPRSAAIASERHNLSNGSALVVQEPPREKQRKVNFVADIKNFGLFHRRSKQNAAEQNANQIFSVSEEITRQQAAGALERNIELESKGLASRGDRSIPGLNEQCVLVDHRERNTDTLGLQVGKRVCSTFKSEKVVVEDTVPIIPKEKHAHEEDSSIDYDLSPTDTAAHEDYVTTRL
# run_description: mouse TRPC4 channel inhibitors, dose response, cell-based, HEK293 TRPC4/mu-opioid, Fluo-4 calcium (AID 434942);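 also: potency of inhibitors blocking the TRPC4 calcium response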
# Assay type: functional
Active and inactive are the calls of the source.
Please respond with reported EC50 for every item in the list.

EC50 lookup needed for CC(C)CCN1CCN(Cc2ccsc2)CC1CCO (stereo not drawn) , thanks.
4.22 µM (active)

Give the measured EC50 of CCC1(C(=O)c2ccccc2)C(c2ccc([N+](=O)[O-])cc2)C1(C(=O)OC)C(=O)OC (stereo not drawn) .
4.22 µM (active)

Which EC50 is reported for this compound? `CCCOc1ccc(-c2nc(SCc3ccccc3)[nH]c(=O)c2C#N)cc1OC`
4.73 µM (active)

I'd like to know its EC50. The compound in question is NC(=O)c1nsc(C(=O)N(Cc2ccco2)C(C(=O)NCC2CCCO2)c2ccc(F)cc2)c1N (stereo not drawn)
10.6 µM (active)

What does the data say about its EC50? Entry: `CCN(CC)c1ccc([N+](=O)[O-])c2cccnc12`
10.6 µM (active)

What value of EC50 has been recorded for this entry: `Cc1nn(C(=O)c2cccc([N+](=O)[O-])c2)c(C)c1Sc1ccccc1`
2.66 µM (active)

Looking for the measured EC50 of `CCCCOc1ccc(CSCCN=C(N)N)cc1` , can you help?
3.35 µM (active)

What does the data say about its EC50? Entry: CCCNC(=O)c1nnsc1[S+]([O-])c1ccc(Cl)cc1 (stereo not drawn)
7.5 µM (active)
